Origin of measurements: paper PMC3108484

- assayed-system: Human V2 (Homo sapiens)
- Sequence (P30518 whole entry): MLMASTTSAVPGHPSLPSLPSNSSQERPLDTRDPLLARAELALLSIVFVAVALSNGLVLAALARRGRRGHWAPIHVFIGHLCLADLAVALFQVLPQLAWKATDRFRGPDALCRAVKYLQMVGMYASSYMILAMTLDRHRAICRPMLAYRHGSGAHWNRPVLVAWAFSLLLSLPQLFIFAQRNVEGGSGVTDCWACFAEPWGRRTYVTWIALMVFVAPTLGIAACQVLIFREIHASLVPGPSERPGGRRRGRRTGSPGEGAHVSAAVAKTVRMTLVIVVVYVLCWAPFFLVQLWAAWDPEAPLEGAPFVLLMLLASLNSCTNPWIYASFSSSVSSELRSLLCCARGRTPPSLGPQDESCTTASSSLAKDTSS
pKi: −log10 of the molar value.

molecule: COC(=O)N1CCC(CN2CCC(CNC(=O)c3cccc4[nH]c(C(C)C)nc34)CC2)CC1 [TD-8954]
pKi: < 6.00

* * *

- assayed-system: Human 5-HT3a (Homo sapiens)
- Sequence (P46098 24-478): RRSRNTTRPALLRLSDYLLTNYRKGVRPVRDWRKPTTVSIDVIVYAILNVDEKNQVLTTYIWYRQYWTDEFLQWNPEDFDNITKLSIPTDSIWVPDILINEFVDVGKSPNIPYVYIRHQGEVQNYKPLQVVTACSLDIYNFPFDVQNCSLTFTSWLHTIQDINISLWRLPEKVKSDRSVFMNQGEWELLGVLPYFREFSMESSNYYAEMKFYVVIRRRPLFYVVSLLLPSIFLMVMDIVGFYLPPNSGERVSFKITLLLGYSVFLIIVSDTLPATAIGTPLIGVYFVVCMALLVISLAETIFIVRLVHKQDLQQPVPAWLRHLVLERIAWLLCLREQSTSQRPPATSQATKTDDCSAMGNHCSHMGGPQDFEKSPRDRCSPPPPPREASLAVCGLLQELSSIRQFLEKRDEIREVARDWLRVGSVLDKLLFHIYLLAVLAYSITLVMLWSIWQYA
quantity-kind: Ki

compound: COC(=O)N1CCC(CN2CCC(CNC(=O)c3cccc4[nH]c(C(C)C)nc34)CC2)CC1 [TD-8954]
quantity-kind: Ki
result: > 100 µM
